Recorded values, source PubChem BioAssay AID1159580.

- ASSAY_NAME: chemical genetic growth profiling, strain panel (AID 1159580);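 note: tested at 20 µM; growth read once vehicle control cultures reached saturation at 30 °C; 1 = growth at the plate median or of vehicle wells; lower values mean less growth of the strain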
- EXPERIMENTAL_CONDITIONS: S. cerevisiae deletion strains, growth OD, locus YDL134C, strain PPH21, active compounds read low
Screen size: about 5,500 compounds; about 2,000 (36%) were called active. Another 18% or so got no clear call; they are omitted. The list shows a part of the results.
PROPERTY_LABEL: normalized growth
Numbers only.

Nc1ccc(C(=O)O)cc1: 1.01
COc1c(C)c2c(c(C)c1Cl)Oc1c(Cl)c(OC)c(Cl)c(C)c1C(=O)O2: 1.01
CN(C)C(=O)Oc1cccc([N+](C)(C)C)c1: 0.987
CCCc1c(OCCCCc2nn[nH]n2)ccc(C(C)=O)c1O: 1.01

Count: 2. Required value per item: normalized growth.
1. COC(=O)c1c(C)c2c(c(C)c1OC)OC(=O)c1c(C)c(Cl)c(OC)c(Cl)c1O2
2. Nc1ccc2nonc2c1N

# output
1: 1.01; 2: 0.968
